Test system: LOC_OS05G43570-cb004;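 further: purified Escherichia coli-expressed rice kinase domain construct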
Test: thermal shift delta Tm vs DMSO control; higher = stronger stabilization (binding)
Conditions: 12.5 µM; protein concentration 2 µM
Listed here are compounds together with their documented thermal shift delta Tm.
assay metric: thermal shift delta Tm (°C)

• CCCCNc1ncc2c(-c3ccc(CN4CCN(C)CC4)cc3)cn([C@H]3CC[C@H](O)CC3)c2n1 = 0.44
• O=c1c(O)c(-c2cc(O)c(O)c(O)c2)oc2cc(O)cc(O)c12 = 1.55
• O=C(NCCCNc1nc(Nc2cccc(NC(=O)N3CCCC3)c2)ncc1I)c1cccs1 = 1.24
• CC(C)NC(=O)COc1cccc(-c2nc(Nc3ccc4[nH]ncc4c3)c3ccccc3n2)c1 = 0.42
• COc1nccc(-c2c(-c3ccc(F)cc3)ncn2C2CCC(O)CC2)n1 (stereo not given) = 0.65
